The entries below are paired with their reported Tmax.
Assay: Pharmacokinetic profile in rat plasma following oral administration
Format: in vivo
Conditions: female, rat, po, 0.2 mg/kg, Average of rats, read-out: Tmax
Could you give the number and then its unit, please?

Worked cases, answers included:
compound	property_name	assay_result
[2H]c1c([2H])c([2H])c(N(CC)C(=O)c2c(O)c3c(Cl)cccc3n(C)c2=O)c([2H])c1[2H] [Compound 1]	Tmax	1.8 h
[2H]c1c([2H])c([2H])c(N(C(=O)c2c(O)c3c(Cl)cccc3n(C)c2=O)C([2H])([2H])C([2H])([2H])[2H])c([2H])c1[2H] [Compound 3]	Tmax	1.4 h
[2H]C([2H])([2H])C([2H])([2H])N(C(=O)c1c(O)c2c(Cl)cccc2n(C)c1=O)c1ccccc1 [Compound 2]	Tmax	1.8 h

Now turn to the next compound.
Dear colleague, I am looking for the recorded Tmax of the following compound: CCN(C(=O)c1c(O)c2c(Cl)cccc2n(C)c1=O)c1ccccc1 [Laquinimod, reference compound]
1.7 h

---

Experiment: Pharmacokinetic profile in rat plasma following oral administration
Format: in vivo
Settings: individual rats, oral 0.2 mg/kg
Entries and their Tmax values follow.
Report the figure in h without appending any unit label.

A selection of reference data follows.
compound	assay_result
[2H]c1c([2H])c([2H])c(N(CC)C(=O)c2c(O)c3c(Cl)cccc3n(C)c2=O)c([2H])c1[2H] [Compound 1]	2.0
CCN(C(=O)c1c(O)c2c(Cl)cccc2n(C)c1=O)c1ccccc1 [Laquinimod, reference compound]	1.0
[2H]C([2H])([2H])C([2H])([2H])N(C(=O)c1c(O)c2c(Cl)cccc2n(C)c1=O)c1ccccc1 [Compound 2]	1.0

Request the reported Tmax associated with [2H]c1c([2H])c([2H])c(N(C(=O)c2c(O)c3c(Cl)cccc3n(C)c2=O)C([2H])([2H])C([2H])([2H])[2H])c([2H])c1[2H] [Compound 3]
2.0

---

Measured half-life, listed per entry for reference.
Test: Pharmacokinetic profile in rat plasma following oral administration
Format: in vivo
Conditions: female, rat, po, 0.2 mg/kg, Average of rats
Report as a plain number; the unit h is understood.

// worked examples, half-life included
compound	half-life / h
[2H]C([2H])([2H])C([2H])([2H])N(C(=O)c1c(O)c2c(Cl)cccc2n(C)c1=O)c1ccccc1 [Compound 2]	13.8
[2H]c1c([2H])c([2H])c(N(C(=O)c2c(O)c3c(Cl)cccc3n(C)c2=O)C([2H])([2H])C([2H])([2H])[2H])c([2H])c1[2H] [Compound 3]	12.4
[2H]c1c([2H])c([2H])c(N(CC)C(=O)c2c(O)c3c(Cl)cccc3n(C)c2=O)c([2H])c1[2H] [Compound 1]	11.3

Okay, next one:
Dear colleague, I am looking for the recorded half-life of the following compound: CCN(C(=O)c1c(O)c2c(Cl)cccc2n(C)c1=O)c1ccccc1 [Laquinimod, reference compound]
11.8

---

Assay: Pharmacokinetic profile in rat plasma following oral administration
Assay type: in vivo
Conditions: female, rat, po, 0.2 mg/kg, individual rats, read-out: Tmax
property_name: Tmax (h)
Numeric answer only, unit h assumed.

Past entries and their recorded results:
compound	unit_tag	Tmax
[2H]c1c([2H])c([2H])c(N(C(=O)c2c(O)c3c(Cl)cccc3n(C)c2=O)C([2H])([2H])C([2H])([2H])[2H])c([2H])c1[2H]	h	1
[2H]c1c([2H])c([2H])c(N(CC)C(=O)c2c(O)c3c(Cl)cccc3n(C)c2=O)c([2H])c1[2H]	h	1
[2H]C([2H])([2H])C([2H])([2H])N(C(=O)c1c(O)c2c(Cl)cccc2n(C)c1=O)c1ccccc1	h	2

With those in mind, consider the next compound.
Bench note: what Tmax did CCN(C(=O)c1c(O)c2c(Cl)cccc2n(C)c1=O)c1ccccc1 [Laquinimod, reference compound] show?
2
